biological target: ELAVL1/HuR (rHuR) (human, UniProt Q15717 1-326); assay: AlphaScreen saturation binding; RNA titrated against 1 nM HuR; R2 0.91; Methods print 0.207±0.024 without unit; 25 mM HEPES pH 7.4, 100 mM NaCl, 0.1% BSA, room temperature, 30 min then 90 min with donor beads; conditions: protein: recombinant; tags: C-terminal Myc-His (vector section) or MYC/DDK (assay section, TP301562); label: biotin (BITEG); single strand
Sequence (Q15717 whole entry): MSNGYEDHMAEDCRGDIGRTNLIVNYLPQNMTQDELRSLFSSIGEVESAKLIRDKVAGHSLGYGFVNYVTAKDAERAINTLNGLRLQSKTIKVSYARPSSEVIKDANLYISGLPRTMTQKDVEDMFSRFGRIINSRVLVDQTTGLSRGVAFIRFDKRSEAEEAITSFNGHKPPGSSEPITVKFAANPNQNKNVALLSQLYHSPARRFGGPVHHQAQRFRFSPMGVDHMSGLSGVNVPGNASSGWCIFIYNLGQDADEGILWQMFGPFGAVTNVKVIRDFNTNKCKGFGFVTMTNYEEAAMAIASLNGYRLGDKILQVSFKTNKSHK
Measurement name: pKd
Schema: pKd number; meaning minus log10 of the concentration expressed in molar units.

Query block: I am curious: what pKd value has been reported for GUUUUAAAUGACUCAUAGGUCCCUGACAUUUAGUUGAUU (ssRNA) [SQSTM1/p62 ARE probe] ?
Result block: 7.51
